Target: T1, Anti-CD28 Fab (SEQ ID NOs: 202, 203)
T1 construct: biotinylated and captured on neutravidin coated plates in the phage ELISA
T1 sequence (VH, as listed by the source, chain 1 of 2): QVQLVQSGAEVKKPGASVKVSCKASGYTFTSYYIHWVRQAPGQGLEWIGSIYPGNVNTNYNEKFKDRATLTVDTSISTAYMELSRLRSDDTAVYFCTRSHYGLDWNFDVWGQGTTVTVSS
T1 sequence (VL, as listed by the source, chain 2 of 2): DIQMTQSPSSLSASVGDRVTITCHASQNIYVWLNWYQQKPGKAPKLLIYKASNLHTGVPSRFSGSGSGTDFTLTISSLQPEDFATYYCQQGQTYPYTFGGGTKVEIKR
Experiment: phage ELISA, Fab on plate;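 further: crude clonal phage supernatants added to wells pretreated with blocking buffer with or without CD28 antigen, then bound phage read out via HRP-linked anti-M13 antibody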
observed.property: Anti-CD28 Fab (SEQ ID NOs: 202, 203) signal
Numbers only.

Reference set, count: 5
1. YCDGHEARYMQKCL [Phage-698] :: 1.21
2. YCEGHQPAYMEKCL [Phage-677] :: 1.27
3. YCDGHVEEYMTKCL [Phage-691] :: 1.24
4. YCEGHSEMYMSKCL [Phage-741] :: 1.07
5. YCDGHLPRYMAKCL [Phage-642] :: 1.35

Hi, could you look up Anti-CD28 Fab (SEQ ID NOs: 202, 203) signal for each item in my list?
1. YCDGHTKEYMWKCL [Phage-736]
2. YCEGHSYQYMQKCL [Phage-715]
3. YCDGLFQLYMMKCL [Phage-624]

[1.1, 1.16, 1.38]
